Each entry below lists one item and its recorded IC50 value.
# Test system: HIV-1CH58TF
# Experimental Details: microbe, parasite or virus in culture
# Type: cell-based
# Test Conditions: Human immunodeficiency virus 1, TZM-bl, TZM-bl cells; average ± SD of at least three independent experiments; read-out: Viral neutralization IC50, HIV-1CH58TF

Compound: CN1CCN(C(=O)N2CCC[C@H](C(=O)Nc3ccc(Cl)c(F)c3)C2)CC1
IC50 (nM): 450
//
Compound: NCCNC(=O)N1CCC[C@H](C(=O)Nc2ccc(Cl)c(F)c2)C1 [MCG-IV-210, reference compound]
IC50 (nM): 3460
//
Compound: CC1CN(C(=O)N2CCCC(C(=O)Nc3ccc(Cl)c(F)c3)C2)CC(C)N1C (centres unmarked) [TFH-I-116-D1]
IC50 (nM): 65.5
//
Compound: NCC(=O)N1CCN(C(=O)N2C[C@H](CO)C[C@H](C(=O)Nc3ccc(Cl)c(F)c3)C2)CC1 (racemic)
IC50 (nM): 160
//
Compound: C[C@@H]1CN(C(=O)N2C[C@H](CN)C[C@H](C(=O)Nc3ccc(Cl)c(F)c3)C2)C[C@H](C)N1C
IC50 (nM): 750
//
Compound: O=C(O)CN1CCN(C(=O)N2C[C@H](CO)C[C@H](C(=O)Nc3ccc(Cl)c(F)c3)C2)CC1 (racemic)
IC50 (nM): 660
//
Compound: CNCc1ccc2c(c1)C[C@H](CNC(=N)N)[C@H]2NC(=O)C(=O)Nc1ccc(Cl)c(F)c1 [BNM-III-170, reference compound]
IC50 (nM): 33.6
//
Compound: CN1CCN(C(=O)N2C[C@H](CN)C[C@H](C(=O)Nc3ccc(Cl)c(F)c3)C2)CC1
IC50 (nM): 2630
